Origin of values: PubChem BioAssay AID624022

target system: Scavenger receptor class B member 1 (Mus musculus) (UniProt Q61009)
Sequence (Q61009 whole entry, looked up): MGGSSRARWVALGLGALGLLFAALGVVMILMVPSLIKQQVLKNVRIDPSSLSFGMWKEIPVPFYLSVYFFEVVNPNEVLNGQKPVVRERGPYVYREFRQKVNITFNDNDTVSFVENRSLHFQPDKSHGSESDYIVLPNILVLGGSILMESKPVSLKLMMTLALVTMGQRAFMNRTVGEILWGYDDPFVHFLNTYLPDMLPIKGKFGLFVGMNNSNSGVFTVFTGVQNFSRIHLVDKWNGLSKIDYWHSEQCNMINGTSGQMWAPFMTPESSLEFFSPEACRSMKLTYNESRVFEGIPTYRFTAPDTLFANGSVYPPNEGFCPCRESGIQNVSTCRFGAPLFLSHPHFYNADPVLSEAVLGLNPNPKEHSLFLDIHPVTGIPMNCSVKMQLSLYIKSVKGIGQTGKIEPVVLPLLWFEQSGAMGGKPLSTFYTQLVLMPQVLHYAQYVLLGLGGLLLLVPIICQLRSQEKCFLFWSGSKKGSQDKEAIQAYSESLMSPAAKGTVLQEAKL
assay procedure: blockers of [3H]CE-HDL uptake via mouse SR-BI – cell-based, wild-type CHO mSR-BI, scintillation, powder samples, orthogonal assay for SR-BI HDL uptake inhibitor project, dose response (AID 624022)
cond: CHO mSR-BI cells
reported endpoint: IC50

Simply: CC(C)NC(=O)Nc1ccc2c(c1)C(=O)N([C@H](C)CO)C[C@@H](C)[C@H](CN(C)S(=O)(=O)c1ccc(Cl)cc1)O2 , Scavenger receptor class B member 1 (Mus musculus) (UniProt Q61009), IC50 = 500 nM
